# system-under-test: T1, human IL-11 (AAH12506.1, Pro22-Leu199) (human, UniProt P20809 22-199)
# T1 construct: The range Pro22-Leu199 counts on AAH12506.1; The Octet runs say only 'human IL-11'; also called hIL-11
# T1 chain: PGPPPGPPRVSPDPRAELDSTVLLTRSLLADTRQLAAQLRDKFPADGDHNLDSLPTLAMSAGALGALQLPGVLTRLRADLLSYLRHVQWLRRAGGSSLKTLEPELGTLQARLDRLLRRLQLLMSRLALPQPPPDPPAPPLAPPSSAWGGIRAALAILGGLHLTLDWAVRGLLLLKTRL
# test-protocol: BLI (Octet), antibody captured, human IL-11 in solution
readout-name: Kd (nM)
// units = nM; emit number, no label

Sample records with Kd:
hz18A10-VHm12 + hz18A10-VLm19 (antibody, V domains shown, Constant regions not restated for this antibody) VH: EVQLVQSGAEVKKPGASVKVSCKASGYTFTHYDMDWVRQAPGQGLEWMGTIYPGNGDTSYNQKFKGRVTMTRDTSTSTVYMELSSLRSEDTAVYYCARGDLYALDYWGQGTLVTVSS VL: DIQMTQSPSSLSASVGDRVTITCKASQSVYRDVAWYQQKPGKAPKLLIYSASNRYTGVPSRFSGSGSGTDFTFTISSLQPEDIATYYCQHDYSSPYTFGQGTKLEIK ... 0.185
hz18A10-VHm8 + hz18A10-VLm19 (antibody, V domains shown, Constant regions not restated for this antibody) VH: EVQLVQSGAEVKKPGASVKVSCKASGYTFTTYDMHWVRQAPGQGLEWMGTIYPGNGDTSYNQKFKGRVTMTRDTSTSTVYMELSSLRSEDTAVYYCARGDLYALDYWGQGTLVTVSS VL: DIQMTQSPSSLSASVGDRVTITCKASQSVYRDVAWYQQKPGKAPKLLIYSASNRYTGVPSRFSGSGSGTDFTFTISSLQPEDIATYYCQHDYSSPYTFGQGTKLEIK ... 1.44

Q: Dear colleague, I am looking for the recorded Kd of the following binder: hz18A10-VHm7 + hz18A10-VLm19 (antibody, V domains shown, Constant regions not restated for this antibody) VH: EVQLVQSGAEVKKPGASVKVSCKASGYTFTTYDIDWVRQAPGQGLEWMGTIYPGNGDTSYNQKFKGRVTMTRDTSTSTVYMELSSLRSEDTAVYYCARGDLYALDYWGQGTLVTVSS VL: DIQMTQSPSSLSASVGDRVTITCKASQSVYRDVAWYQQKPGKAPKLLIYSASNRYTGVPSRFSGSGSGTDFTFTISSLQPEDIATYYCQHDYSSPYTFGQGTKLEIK
Result: 0.105

Values from patent US20250197488A1
